So I've got a bunch of compounds here, and I need their selectivity ratio h5HT1A values.
biological target: human 5HT1A receptor (Homo sapiens); construct: expressed in transfected cells; host or cells: COS-7 cells, transient (pCEXV-3 vector); experiment: Radioligand binding, 5-HT1A receptor (3H-8-OH-DPAT); conditions: Table 8; Ki h5HT1A divided by Ki hGAL3
Sequence (P08908 whole entry): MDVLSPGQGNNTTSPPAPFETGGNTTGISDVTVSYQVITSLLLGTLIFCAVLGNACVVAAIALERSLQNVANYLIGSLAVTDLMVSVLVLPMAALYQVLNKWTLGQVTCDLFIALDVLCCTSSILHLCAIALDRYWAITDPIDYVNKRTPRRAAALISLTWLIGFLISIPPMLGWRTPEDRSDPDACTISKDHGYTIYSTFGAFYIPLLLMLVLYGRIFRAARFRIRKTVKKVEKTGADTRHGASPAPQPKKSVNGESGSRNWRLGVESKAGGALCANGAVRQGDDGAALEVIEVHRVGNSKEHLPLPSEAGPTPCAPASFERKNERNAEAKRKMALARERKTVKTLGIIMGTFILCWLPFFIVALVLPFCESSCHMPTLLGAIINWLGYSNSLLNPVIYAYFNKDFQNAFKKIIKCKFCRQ

Supply selectivity ratio h5HT1A value. Item: `O=C1C(=Nc2cccc(C(F)(F)F)c2)c2ccccc2N1c1ccccc1`
>100

Supply selectivity ratio h5HT1A value. Item: `COc1cccc(Nc2cc(N3CCCCC3)nc(N(C)CCc3c[nH]c4ccccc34)n2)c1`
>30

Supply selectivity ratio h5HT1A value. Item: `O=C1C(=Nc2cccc(Cl)c2)c2ccccc2N1c1ccccc1`
>100

Supply selectivity ratio h5HT1A value. Item: `O=C1C(=Nc2ccc(C(F)(F)F)cc2)c2ccccc2N1c1ccccc1`
>100

Supply selectivity ratio h5HT1A value. Item: `Cc1ccc(Nc2cc(N3CCCCC3)nc(N(C)CCc3ccccc3)n2)cc1`
>100

Supply selectivity ratio h5HT1A value. Item: `O=C1C(=Nc2ccc(Br)cc2)c2ccccc2N1c1ccccc1`
>100

Supply selectivity ratio h5HT1A value. Item: `O=C1C(=Nc2ccc(Cl)cc2)c2ccccc2N1c1ccccc1`
>100

Supply selectivity ratio h5HT1A value. Item: `CN(CCc1c[nH]c2ccccc12)c1nc(Nc2ccc(F)c(F)c2)cc(N2CCCCC2)n1`
>30

Supply selectivity ratio h5HT1A value. Item: `Cc1ccc(Nc2cc(N3CCCCC3)nc(N3CCN(c4ncccc4C(F)(F)F)CC3)n2)cc1`
>100

* * *

molecular target: human 5HT6 (Homo sapiens); construct: expressed in transfected cells; test: Radioligand binding, 5-HT6 receptor; conditions: Table 7; read-out: h5HT6 Ki
Sequence (P50406 whole entry): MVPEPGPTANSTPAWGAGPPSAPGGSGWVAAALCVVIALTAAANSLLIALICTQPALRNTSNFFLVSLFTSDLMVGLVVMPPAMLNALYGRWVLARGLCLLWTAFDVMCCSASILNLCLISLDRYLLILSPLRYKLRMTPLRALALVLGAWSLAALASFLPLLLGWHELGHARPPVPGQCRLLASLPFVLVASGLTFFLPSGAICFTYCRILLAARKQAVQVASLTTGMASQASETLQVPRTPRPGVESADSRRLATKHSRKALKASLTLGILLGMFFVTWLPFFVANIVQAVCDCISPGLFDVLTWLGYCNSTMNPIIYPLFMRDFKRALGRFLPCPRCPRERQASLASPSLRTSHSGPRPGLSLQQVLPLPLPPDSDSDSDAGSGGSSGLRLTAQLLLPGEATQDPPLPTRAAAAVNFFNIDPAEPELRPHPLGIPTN
pKi: −log10 of the molar value.
Use 5 as the dividing line for pKi, with the line itself on the yes (1) side and lower values as no (0).

Decide: is the reported value of pKi for `Cc1ccc(Nc2cc(N(C)C)nc(N(C)CCc3c[nH]c4ccccc34)n2)cc1` equal to or greater than 5?
yes (1)

Decide: is the reported value of pKi for `CN(C)c1cc(Nc2ccc(Cl)c(Cl)c2)nc(Nc2ccccc2)n1` equal to or greater than 5?
no (0)

Decide: is the reported value of pKi for `CN(CCc1c[nH]c2ccccc12)c1nc(Nc2ccc(F)c(F)c2)cc(N2CCCCC2)n1` equal to or greater than 5?
yes (1)

Decide: is the reported value of pKi for `O=C1C(=Nc2ccc(Br)cc2)c2ccccc2N1c1ccccc1` equal to or greater than 5?
no (0)

Decide: is the reported value of pKi for `O=C1C(=Nc2cccc(Cl)c2)c2ccccc2N1c1ccccc1` equal to or greater than 5?
yes (1)

Decide: is the reported value of pKi for `Cc1ccc(Nc2cc(N3CCCCC3)nc(N(C)CCc3c[nH]c4ccccc34)n2)cc1` equal to or greater than 5?
yes (1)

Decide: is the reported value of pKi for `O=C1C(=Nc2ccc(Cl)cc2)c2ccccc2N1c1ccccc1` equal to or greater than 5?
no (0)

Decide: is the reported value of pKi for `COc1cccc(Nc2cc(N3CCCCC3)nc(N(C)CCc3c[nH]c4ccccc34)n2)c1` equal to or greater than 5?
yes (1)

Decide: is the reported value of pKi for `Cc1ccc(Nc2cc(N3CCCCC3)nc(N3CCN(c4ncccc4C(F)(F)F)CC3)n2)cc1` equal to or greater than 5?
no (0)

Decide: is the reported value of pKi for `Cc1ccc(Nc2cc(N3CCCCC3)nc(N(C)CCc3ccccc3)n2)cc1` equal to or greater than 5?
yes (1)

Decide: is the reported value of pKi for `O=C1C(=Nc2ccc(C(F)(F)F)cc2)c2ccccc2N1c1ccccc1` equal to or greater than 5?
no (0)

* * *

tested on: Male Sprague-Dawley rats; assay: Rat Forced Swim Test (FST); format: in vivo; conditions: 10 mg/kg p.o., single administration, 1 hr. before test
The label yes (1) is reserved for Diving strictly under 0.4; no (0) covers values equal to or above it.

Is the reported Diving for `O=C1C(=Nc2ccc(Br)cc2)c2ccccc2N1c1ccccc1` strictly below 0.4?
no (0)

Is the reported Diving for `COC[C@@H]1[C@@H](c2ccccc2)OCCN1c1nc(Nc2ccc(C)cc2)cc(N2CCCCC2)n1` strictly below 0.4?
yes (1)

Is the reported Diving for `O=C1C(=Nc2ccc(C(F)(F)F)cc2)c2ccccc2N1c1ccccc1` strictly below 0.4?
yes (1)

Is the reported Diving for `CN(C)c1cc(Nc2ccc(Cl)c(Cl)c2)nc(N2CCN(Cc3ccccc3)CC2)n1` strictly below 0.4?
yes (1)

* * *

target: rat D3 receptors (Rattus norvegicus); construct: purchased BioSignal, Inc. (Montreal, Canada); test: Radioligand binding, dopamine D3 receptor; conditions: Table 9; read-out: rD3 Ki
Sequence (P19020 whole entry): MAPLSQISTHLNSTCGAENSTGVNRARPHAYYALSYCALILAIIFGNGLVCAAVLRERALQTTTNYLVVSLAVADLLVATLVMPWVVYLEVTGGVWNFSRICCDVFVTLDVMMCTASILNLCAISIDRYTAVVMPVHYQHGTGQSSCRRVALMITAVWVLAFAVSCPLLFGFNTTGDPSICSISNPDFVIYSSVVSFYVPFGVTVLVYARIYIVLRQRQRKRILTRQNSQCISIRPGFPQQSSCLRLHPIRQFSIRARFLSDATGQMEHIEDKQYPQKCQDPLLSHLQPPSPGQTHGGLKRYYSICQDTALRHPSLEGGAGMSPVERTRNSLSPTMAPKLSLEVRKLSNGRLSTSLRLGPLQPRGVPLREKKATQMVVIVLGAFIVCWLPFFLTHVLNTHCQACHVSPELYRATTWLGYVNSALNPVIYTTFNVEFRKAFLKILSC
readout.type: log10(Ki) (log10 of the value in µM)
Parameter value (number): base-10 log of Ki in µM.

Supply log10(Ki) value. Item: `Cc1ccc(Nc2cc(N3CCCCC3)nc(N(C)CCc3ccccc3)n2)cc1`
0.75

Supply log10(Ki) value. Item: `O=C1C(=Nc2ccc(Cl)cc2)c2ccccc2N1c1ccccc1`
0.99

Supply log10(Ki) value. Item: `CN(CCc1c[nH]c2ccccc12)c1nc(Nc2ccc(F)c(F)c2)cc(N2CCCCC2)n1`
0.94

Supply log10(Ki) value. Item: `COc1cccc(Nc2cc(N3CCCCC3)nc(N(C)CCc3c[nH]c4ccccc34)n2)c1`
0.39

Supply log10(Ki) value. Item: `Cc1ccc(Nc2cc(N3CCCCC3)nc(N(C)CCc3c[nH]c4ccccc34)n2)cc1`
0.33

Supply log10(Ki) value. Item: `O=C1C(=Nc2ccc(C(F)(F)F)cc2)c2ccccc2N1c1ccccc1`
-0.33

Supply log10(Ki) value. Item: `O=C1C(=Nc2cccc(Cl)c2)c2ccccc2N1c1ccccc1`
-0.37

Supply log10(Ki) value. Item: `Cc1ccc(Nc2cc(N3CCCCC3)nc(N3CCN(c4ncccc4C(F)(F)F)CC3)n2)cc1`
1.00

Supply log10(Ki) value. Item: `O=C1C(=Nc2ccc(Br)cc2)c2ccccc2N1c1ccccc1`
-0.23

Supply log10(Ki) value. Item: `Cc1ccc(Nc2cc(N(C)C)nc(N(C)CCc3c[nH]c4ccccc34)n2)cc1`
0.43

Supply log10(Ki) value. Item: `CN(C)c1cc(Nc2ccc(Cl)c(Cl)c2)nc(Nc2ccccc2)n1`
1.18

* * *

molecular target: rat 5HT2C receptor (Rattus norvegicus); construct: expressed in transfected cells; experiment: Radioligand binding, 5HT2C receptor; details: Table 8; Ki r5HT2C divided by Ki hGAL3
Sequence (P08909 33-460): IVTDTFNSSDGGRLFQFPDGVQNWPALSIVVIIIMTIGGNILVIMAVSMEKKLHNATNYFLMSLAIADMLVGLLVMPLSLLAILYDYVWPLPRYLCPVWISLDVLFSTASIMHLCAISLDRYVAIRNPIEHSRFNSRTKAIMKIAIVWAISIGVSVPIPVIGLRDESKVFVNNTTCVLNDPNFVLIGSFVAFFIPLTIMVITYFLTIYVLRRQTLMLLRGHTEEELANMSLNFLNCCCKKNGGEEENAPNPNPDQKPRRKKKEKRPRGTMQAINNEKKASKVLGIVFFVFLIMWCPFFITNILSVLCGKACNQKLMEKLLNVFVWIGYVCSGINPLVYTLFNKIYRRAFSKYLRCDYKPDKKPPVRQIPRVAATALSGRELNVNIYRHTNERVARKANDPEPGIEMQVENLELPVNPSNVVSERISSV
readout.type: selectivity ratio r5HT2C

Supply selectivity ratio r5HT2C value. Item: `O=C1C(=Nc2ccc(Br)cc2)c2ccccc2N1c1ccccc1`
>30

Supply selectivity ratio r5HT2C value. Item: `Cc1ccc(Nc2cc(N3CCCCC3)nc(N(C)CCc3c[nH]c4ccccc34)n2)cc1`
9

Supply selectivity ratio r5HT2C value. Item: `Cc1ccc(Nc2cc(N(C)C)nc(N(C)CCc3c[nH]c4ccccc34)n2)cc1`
6

Supply selectivity ratio r5HT2C value. Item: `O=C1C(=Nc2cccc(Cl)c2)c2ccccc2N1c1ccccc1`
>30

Supply selectivity ratio r5HT2C value. Item: `O=C1C(=Nc2ccc(Cl)cc2)c2ccccc2N1c1ccccc1`
>30

Supply selectivity ratio r5HT2C value. Item: `COc1cccc(Nc2cc(N3CCCCC3)nc(N(C)CCc3c[nH]c4ccccc34)n2)c1`
6

Supply selectivity ratio r5HT2C value. Item: `COC[C@@H]1[C@@H](c2ccccc2)OCCN1c1nc(Nc2ccc(C)cc2)cc(N2CCCCC2)n1`
>30

Supply selectivity ratio r5HT2C value. Item: `CN(C)c1cc(Nc2ccc(Cl)c(Cl)c2)nc(Nc2ccccc2)n1`
21

Supply selectivity ratio r5HT2C value. Item: `O=C1C(=Nc2ccc(C(F)(F)F)cc2)c2ccccc2N1c1ccccc1`
>100

Supply selectivity ratio r5HT2C value. Item: `CN(CCc1c[nH]c2ccccc12)c1nc(Nc2ccc(F)c(F)c2)cc(N2CCCCC2)n1`
8

Supply selectivity ratio r5HT2C value. Item: `Cc1ccc(Nc2cc(N3CCCCC3)nc(N3CCN(c4ncccc4C(F)(F)F)CC3)n2)cc1`
>30

Supply selectivity ratio r5HT2C value. Item: `Cc1ccc(Nc2cc(N3CCCCC3)nc(N(C)CCc3ccccc3)n2)cc1`
>30

* * *

So I've got a bunch of molecules here, and I need their selectivity ratio hα1A values.
molecular target: human α1A adrenoceptor (Homo sapiens, UniProt P35348); construct: expressed in transfected cells; assay: Radioligand binding, α1A adrenergic receptor; details: Table 10; Ki hα1A divided by Ki hGAL3
Sequence (P35348 whole entry): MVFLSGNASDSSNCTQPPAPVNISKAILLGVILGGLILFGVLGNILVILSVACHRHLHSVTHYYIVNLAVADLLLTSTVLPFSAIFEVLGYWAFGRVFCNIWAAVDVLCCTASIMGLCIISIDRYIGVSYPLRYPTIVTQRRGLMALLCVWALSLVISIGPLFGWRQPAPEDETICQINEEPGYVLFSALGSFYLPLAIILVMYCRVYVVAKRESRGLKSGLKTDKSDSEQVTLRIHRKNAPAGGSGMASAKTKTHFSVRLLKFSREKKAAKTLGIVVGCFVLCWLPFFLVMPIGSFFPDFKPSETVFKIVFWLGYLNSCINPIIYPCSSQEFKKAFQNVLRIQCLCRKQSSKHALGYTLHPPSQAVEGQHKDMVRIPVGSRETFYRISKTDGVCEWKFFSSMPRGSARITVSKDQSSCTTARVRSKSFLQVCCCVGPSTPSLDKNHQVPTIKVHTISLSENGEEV

Supply selectivity ratio hα1A value. Item: `CN(C)c1cc(Nc2ccc(Cl)c(Cl)c2)nc(Nc2ccccc2)n1`
>100

Supply selectivity ratio hα1A value. Item: `COC[C@@H]1[C@@H](c2ccccc2)OCCN1c1nc(Nc2ccc(C)cc2)cc(N2CCCCC2)n1`
>30

Supply selectivity ratio hα1A value. Item: `O=C1C(=Nc2ccc(Br)cc2)c2ccccc2N1c1ccccc1`
>100

Supply selectivity ratio hα1A value. Item: `CN(CCc1c[nH]c2ccccc12)c1nc(Nc2ccc(F)c(F)c2)cc(N2CCCCC2)n1`
46

Supply selectivity ratio hα1A value. Item: `O=C1C(=Nc2ccc(Cl)cc2)c2ccccc2N1c1ccccc1`
>100

Measured values drawn from patent EP2140864A2 for this set.
